- test-system: recombinant BRD4 BD2 (Homo sapiens, UniProt O60885)
- Construct: for recombinant BRD4 BD1 and BRD4 BD2 proteins
- protocol: Competitive fluorescence-polarization (FP) binding assay, BRD4 BD2; on IC50 (nM) BRD4 BD2: probe 1.5 nM
- condition-notes: competitive FP assay; protein 6 nM, probe […]; read-out: IC50 (nM) BRD4 BD2
measured-metric: IC50 (nM)

a: COc1cc2c(cc1-c1c(C)noc1C)[nH]c1nc(C)nc(Nc3cn(C)nc3C3CCC3)c12
b: COc1cc2c(cc1-c1c(C)noc1C)[nH]c1nc(C)nc(Nc3cc(C)nn3C3CCC3)c12
*Q* # compare IC50 for a vs b ; return the one with the smaller value Choose, then provide that item's label.
*A* a

---

- Test system: MOLM-13
- protocol: Cell growth inhibition, MOLM-13 leukemia cells (CellTiter-Glo)
- Format: cell-based
- condition-notes: Homo sapiens, MOLM-13, 96 h; 4 days; read-out: IC50 (nM) MOLM-13 Cell Line (CellTiter-Glo assay)
measured-metric: IC50 (nM)

Use these answered entries as a reference point.
COc1cc2c(cc1-c1c(C)noc1C)[nH]c1nc(C)nc(Nc3cccc(C)c3)c12 [Cpd. No. 212]
103
COc1cc2c(cc1-c1c(C)noc1C)[nH]c1nc(C)nc(Nc3c(C)cnn3C3CCCC3)c12 [Cpd. No. 135]
30.2
CCn1nc(C2CC2)cc1Nc1nc(C)nc2[nH]c3cc(-c4c(C)noc4C)c(OC)cc3c12 [Cpd. No. 144]
3
COc1cc2c(cc1-c1c(C)noc1C)[nH]c1nc(C)nc(Nc3c(C)cnn3C(C)C)c12 [Cpd. No. 37]
54.1
COc1cc2c(cc1-c1c(C)noc1C)[nH]c1nc(C)nc(Nc3c(C4CC4)nn(C)c3C3CC3)c12 [Cpd. No. 239]
22

A: COc1cc2c(cc1-c1c(C)noc1C)[nH]c1nc(C)nc(Nc3c(C)cnn3C3CC3)c12 [Cpd. No. 197]
B: COc1cc2c(cc1-c1c(C)noc1C)[nH]c1nc(C)nc(Nc3cc(C)nn3-c3ccccc3)c12 [Cpd. No. 1]
*Q* # compare IC50 for A vs B ; return the one with the smaller value Choose, then provide that item's label.
*A* B
(B: 29.8 nM, A: 357 nM)

---

- Tested on: MOLM-13
- protocol: Cell growth inhibition, MOLM-13 leukemia cells (CellTiter-Glo)
- Format: cell-based
- condition-notes: Homo sapiens, MOLM-13, 96 h; 4 days; read-out: IC50 (nM) MOLM-13 Cell Line (CellTiter-Glo assay)
measured-metric: IC50 (nM)

Use these answered entries as a reference point.
COc1cc2c(cc1-c1c(C)noc1C)[nH]c1nc(C)nc(Nc3cc(C(C)C)nn3C)c12 [Cpd. No. 65]
11.7
COc1cc2c(cc1-c1c(C)noc1C)[nH]c1nc(C)nc(Nc3cc(C(C)(C)C)n[nH]3)c12 [Cpd. No. 126]
65.3
COc1cccc(Nc2nc(C)nc3[nH]c4cc(-c5c(C)noc5C)c(OC)cc4c23)c1 [Cpd. No. 213]
103

A: COc1cc2c(cc1-c1c(C)noc1C)[nH]c1nc(C)nc(Nc3cccc4c3CCN4)c12 [Cpd. No. 231]
B: CCn1nc(C2CC2)c(C)c1Nc1nc(C)nc2[nH]c3cc(-c4c(C)noc4C)c(OC)cc3c12 [Cpd. No. 145]
C: COc1cc2c(cc1-c1c(C)noc1C)[nH]c1nc(C)nc(Nc3cc(C4(C)CC4)nn3C)c12 [Cpd. No. 251]
*Q* Please put the entries in order of rising IC50. Ranked list of labels, please, in the requested order.
*A* C, A, B
(C: 11 nM, A: 28 nM, B: 69.5 nM)

1: COc1cc2c(cc1-c1c(C)noc1C)[nH]c1nc(C)nc(Nc3cc(C)ccn3)c12 [Cpd. No. 110]
2: CCn1nc2c(c1Nc1nc(C)nc3[nH]c4cc(-c5c(C)noc5C)c(OC)cc4c13)CCC2 [Cpd. No. 141]
*Q* # compare IC50 for 1 vs 2 ; return the one with the smaller value Choose, then provide that item's label.
*A* 2
(2: 1.6 nM, 1: 16 nM)

---

- test-system: recombinant BRD4 BD2 (Homo sapiens, UniProt O60885)
- Construct: for recombinant BRD4 BD1 and BRD4 BD2 proteins
- protocol: Competitive fluorescence-polarization (FP) binding assay, BRD4 BD2
- condition-notes: FP competitive binding, BRD4 BD2; read-out: Binding affinities (FP) BRD4BD2 IC50
- Method: Fluorescence Polarization (FP) competitive binding studies were carried out using a FAM labeled fluorescent probe (ZBA248 or BRD-1F) to determine binding affinities of representative Compounds of the Disclosure for recombinant BRD4 BD1 and BRD4 BD2 proteins. […] Kd values of ZBA248 were calculated by fitting the sigmoidal dose-dependent FP increases as a function of protein concentrations using Graphpad Prism 6.0 software (Graphpad Software, San Diego, Calif.). […]
pIC50: −log10 of the molar value.
measured-metric: pIC50

P: COc1nc2c(cc1-c1c(C)noc1C)[nH]c1nc(C)nc(N(C)c3cc(C)nn3C(C)(C)C)c12
Q: COc1cc2c(cc1-c1c(C)noc1C)[nH]c1nc(C)nc(Nc3cc(C4CC4)nn3C3CCOCC3)c12
R: COc1c(-c2c(C)noc2C)cc2[nH]c3nc(C)nc(N(C)c4cc(C5CC5)nn4C)c3c2c1F
*Q* Ranking criterion: pIC50, increasing numeric value. Items: as listed above. Ranked list of labels, please, in the requested order.
*A* P, R, Q
(P: 6.51, R: 7.37, Q: 8.30)

---

- System: MOLM-13
- protocol: Cell growth inhibition, MOLM-13 leukemia cells (CellTiter-Glo)
- Type: cell-based
- condition-notes: Homo sapiens, MOLM-13, 96 h; 4 days; read-out: IC50 (nM) MOLM-13 Cell Line (CellTiter-Glo assay)
measured-metric: IC50 (nM)

Use these answered entries as a reference point.
CCn1nc(C2CC2)c(F)c1Nc1nc(C)nc2[nH]c3cc(-c4c(C)noc4C)c(OC)cc3c12
21
COc1cc2c(cc1-c1c(C)noc1C)[nH]c1nc(C)nc(Nc3ccnn3C3CCCC3)c12
22.5
COc1cc2c(cc1-c1c(C)noc1C)[nH]c1nc(C)nc(Nc3cn(C)c4ncccc34)c12
31

A: COc1cc2c(cc1-c1c(C)noc1C)[nH]c1nc(C)nc(Nc3onc(C)c3C)c12
B: COc1cc2c(cc1-c1c(C)noc1C)[nH]c1nc(C)nc(Nc3cc(C4CC4)nn3C3CC3)c12
C: COc1cc2c(cc1-c1c(C)noc1C)[nH]c1nc(C)nc(Nc3c4c(nn3C)CCC4)c12
*Q* Please put the entries in order of rising IC50. Ranked list of labels, please, in the requested order.
*A* C, B, A
(C: 6 nM, B: 19 nM, A: 912 nM)

---

- test-system: recombinant BRD4 BD2 (Homo sapiens)
- Construct: for recombinant BRD4 BD1 and BRD4 BD2 proteins
- protocol: Competitive fluorescence-polarization (FP) binding assay, BRD4 BD2; on IC50 (nM) BRD4 BD2: probe 1.5 nM
- condition-notes: competitive FP assay; protein 6 nM, probe […]; read-out: IC50 (nM) BRD4 BD2
measured-metric: IC50 (nM)

CCn1nc(C)cc1Nc1nc(C)nc2[nH]c3cc(-c4c(C)noc4C)c(OC)cc3c12
9.6
COc1cc2c(cc1-c1c(C)noc1C)[nH]c1nc(C)nc(Nc3cc(C)nn3C)c12
8
COc1cc2c(cc1-c1c(C)noc1C)[nH]c1nc(C)nc(Nc3cc(C4CCC4)nn3C)c12
6.9
COc1cc2c(cc1-c1c(C)noc1C)[nH]c1nc(C)nc(Nc3c4c(nn3C)CCC4)c12
2.3

P: COc1cc2c(cc1-c1c(C)noc1C)[nH]c1nc(C)nc(Nc3cc(C(C)C)nn3C)c12
Q: COc1cc2c(cc1-c1c(C)noc1C)[nH]c1nc(C)nc(Nc3c(C)nn4ccccc34)c12
*Q* Sort P and Q by IC50 descending and give the first. Choose, then provide that item's label.
*A* Q

1: COc1cc2c(cc1-c1c(C)noc1C)[nH]c1nc(C)nc(Nc3c(C)nn(C)c3C)c12
2: COc1cc2c(cc1-c1c(C)noc1C)[nH]c1nc(C)nc(Nc3nnc4ccccn34)c12
*Q* # compare IC50 for 1 vs 2 ; return the one with the smaller value Choose, then provide that item's label.
*A* 1
(1: 42.9 nM, 2: 786 nM)

---

- test-system: recombinant BRD4 BD2 (Homo sapiens)
- Construct: for recombinant BRD4 BD1 and BRD4 BD2 proteins
- protocol: Competitive fluorescence-polarization (FP) binding assay, BRD4 BD2; on IC50 (nM) BRD4 BD2: probe 1.5 nM
- condition-notes: competitive FP assay; protein 6 nM, probe […]; read-out: IC50 (nM) BRD4 BD2
measured-metric: IC50 (nM)

P: COc1cc2c(cc1-c1c(C)noc1C)[nH]c1nc(C)nc(Nc3c(C#N)cnn3C)c12
Q: CCn1nccc1Nc1nc(C)nc2[nH]c3cc(-c4c(C)noc4C)c(OC)cc3c12
R: COc1cc2c(cc1-c1c(C)noc1C)[nH]c1nc(C)nc(Nc3c[nH]c4ncccc34)c12
*Q* // ranking: key=IC50, reverse=True Ranked list of labels, please, in the requested order.
*A* P, Q, R
